Target: T1, PTPRG, endogenous in H929 multiple myeloma cells (human, UniProt P23470 20-1445)
T1 construct: Native protein on H929 cells (flow cytometry, siRNA knockdown) and in H929 lysates (IP/MS); also called phosphatase receptor type γ
T1 sequence (P23470 20-1445 limits assumed): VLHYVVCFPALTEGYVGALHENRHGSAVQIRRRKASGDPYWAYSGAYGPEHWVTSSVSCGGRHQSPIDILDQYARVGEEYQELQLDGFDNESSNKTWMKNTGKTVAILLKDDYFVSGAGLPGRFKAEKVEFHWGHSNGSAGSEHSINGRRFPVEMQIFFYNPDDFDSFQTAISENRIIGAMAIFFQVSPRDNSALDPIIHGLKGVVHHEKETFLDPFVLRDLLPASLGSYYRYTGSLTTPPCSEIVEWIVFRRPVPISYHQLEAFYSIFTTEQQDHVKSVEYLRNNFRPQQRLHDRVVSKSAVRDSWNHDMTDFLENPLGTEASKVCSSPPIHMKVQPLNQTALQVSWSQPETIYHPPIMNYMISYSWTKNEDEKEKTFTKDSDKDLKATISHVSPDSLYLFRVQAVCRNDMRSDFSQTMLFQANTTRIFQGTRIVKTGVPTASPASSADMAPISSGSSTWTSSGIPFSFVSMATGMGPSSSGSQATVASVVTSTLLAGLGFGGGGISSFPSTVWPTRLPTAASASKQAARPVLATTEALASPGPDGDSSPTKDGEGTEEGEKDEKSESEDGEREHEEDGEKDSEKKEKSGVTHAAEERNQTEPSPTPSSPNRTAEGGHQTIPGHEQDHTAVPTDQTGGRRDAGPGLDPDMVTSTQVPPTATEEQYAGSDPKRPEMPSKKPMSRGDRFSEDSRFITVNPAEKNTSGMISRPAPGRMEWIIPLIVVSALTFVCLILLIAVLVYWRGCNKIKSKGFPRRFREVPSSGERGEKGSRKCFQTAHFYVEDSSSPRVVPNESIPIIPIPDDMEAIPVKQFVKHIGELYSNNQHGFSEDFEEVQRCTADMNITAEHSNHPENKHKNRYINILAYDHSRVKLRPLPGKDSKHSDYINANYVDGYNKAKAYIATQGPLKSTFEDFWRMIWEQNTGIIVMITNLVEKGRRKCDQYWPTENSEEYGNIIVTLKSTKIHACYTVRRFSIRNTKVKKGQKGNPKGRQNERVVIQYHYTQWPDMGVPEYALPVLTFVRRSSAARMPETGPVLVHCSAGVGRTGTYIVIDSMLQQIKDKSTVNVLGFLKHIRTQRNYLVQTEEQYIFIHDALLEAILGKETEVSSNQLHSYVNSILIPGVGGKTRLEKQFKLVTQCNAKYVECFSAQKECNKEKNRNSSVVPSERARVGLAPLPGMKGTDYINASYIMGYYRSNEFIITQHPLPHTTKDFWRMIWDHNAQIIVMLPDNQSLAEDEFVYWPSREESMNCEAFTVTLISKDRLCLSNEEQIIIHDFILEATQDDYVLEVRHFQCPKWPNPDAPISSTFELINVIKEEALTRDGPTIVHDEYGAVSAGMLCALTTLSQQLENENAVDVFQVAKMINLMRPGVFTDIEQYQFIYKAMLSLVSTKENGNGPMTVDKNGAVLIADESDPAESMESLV
Assay: flow cytometry, H929 + PTPRG siRNA (target knocked down); None 2.13
Overview of recorded Cells stained (%) for various binders
Number only, in %; omit the unit.

binder	Cells stained (%)
HW-25 chimeric rabbit-human IgG1 LA/LA/PG (antibody, V domains shown, Fc-silenced (L234A/L235A/P329G) IgG1, lambda; Alexa Fluor 647-labeled in single-step flow cytometry; Cluster C-1) VH: QSLEESGGRLVTPGTPLTLTCTVSGFSLSSYAMGWVRQAPGKGLEWIGIIDSRGSTYYATWAKGRFTISKTSTTVDLKITSPTTEDTATYFCAREDSYYYDSFNLWGPGTLVTVSS VL: SFVLTQPASVQVNLGQTVSLTCTADTLSRRYASWYQQKPGQAPVLLIYRDTSRPSGVPDRFSGSSSGNTATLTISGAQAGDEADYYCATSDGSGSSYQCVFGGGTQLTVTG	0.87
HW-70 chimeric rabbit-human IgG1 LA/LA/PG (antibody, V domains shown, Fc-silenced (L234A/L235A/P329G) IgG1, lambda; Alexa Fluor 647-labeled in single-step flow cytometry; Cluster C-1) VH: QSLEESGGRLVTPGTPLTLTCTVSGFSLSSNAMSWVRQAPGKGLEWIGTIDGYGYTYYASWAKGRFTVSKTSTTVDLKITSPTTEDTATYFCAREIYLGSNFWGPGTLVTISS VL: SFVLTQPASVQVNLGQTVSLTCTADTLSRRYASWYQQKPGQAPVLLIYRDTSRPSGVPDRFSGSSSGNTATLTISGAQAGDEADYYCATADGSGSSYQFVFGGGTQLTVTG	0.87
HW-1 chimeric rabbit-human IgG1 LA/LA/PG (antibody, V domains shown, Fc-silenced (L234A/L235A/P329G) IgG1, lambda; Alexa Fluor 647-labeled in single-step flow cytometry; Prototype of cluster C-1) VH: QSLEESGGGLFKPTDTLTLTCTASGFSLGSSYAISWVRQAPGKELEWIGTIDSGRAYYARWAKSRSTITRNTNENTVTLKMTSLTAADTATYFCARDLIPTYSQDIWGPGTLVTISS VL: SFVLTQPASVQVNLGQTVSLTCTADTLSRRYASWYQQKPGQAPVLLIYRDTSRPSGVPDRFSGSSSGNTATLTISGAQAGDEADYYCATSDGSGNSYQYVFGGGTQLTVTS	1.2
HW-17 chimeric rabbit-human IgG1 LA/LA/PG (antibody, V domains shown, Fc-silenced (L234A/L235A/P329G) IgG1, lambda; Alexa Fluor 647-labeled in single-step flow cytometry; Cluster C-1) VH: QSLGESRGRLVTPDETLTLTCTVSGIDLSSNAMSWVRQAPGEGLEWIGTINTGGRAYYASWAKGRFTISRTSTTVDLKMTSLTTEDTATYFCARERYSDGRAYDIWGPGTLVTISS VL: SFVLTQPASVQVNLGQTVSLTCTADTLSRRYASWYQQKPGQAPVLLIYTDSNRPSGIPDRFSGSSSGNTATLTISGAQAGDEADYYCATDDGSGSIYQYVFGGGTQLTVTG	1.25

Provide one value: measured Cells stained (%) of HW-42 chimeric rabbit-human IgG1 LA/LA/PG (antibody, V domains shown, Fc-silenced (L234A/L235A/P329G) IgG1, lambda; Alexa Fluor 647-labeled in single-step flow cytometry; Cluster C-1) VH: QSVKESEGGLFKPADTLTLTCTVSGFSLSSNEISWVRQAPGEGLEYIGIIDTGGRAYYAVWARSRSTITRNTNLNTVTLKMTSLTAADTATYFCARGGVDTEWYAFSSWGPGTLVTVPS VL: SFVLTQPASVQVNLGQTVSLTCTADTLSRRYASWYQQKPGQAPVLLIFRDTSRPSGVPDRFSGSSSGDTATLTISGAQAGDEADYYCATSDGSGSNYQYVFGGGTQLTVTG
0.55
